Here, each record is paired with measured growth inhibition data.
# assay_info: NCI Yeast Anticancer Drug Screen. Data for the bub3 strain (AID 167)
# condition_notes: S. cerevisiae bub3 mutant strain, at 50.0 µM, active compounds read high
Compounds without any hit were thinned out: in the full panel of roughly 79,000, 15% have a hit.
Use % as the unit, but write only the number.

Q: I have this compound here, `OCCCC1CCN(CCO)CC1` , and I need its recorded growth inhibition.
Ans: -8.7

Q: Requested read-out: growth inhibition. Entry: `O=S(=O)(O)c1cc(I)c(O)c2ncccc12`
Ans: 19.4

* * *

# assay_info: NCI Yeast Anticancer Drug Screen. Data for the bub3 strain (AID 167)
# condition_notes: S. cerevisiae bub3 mutant strain, at 50.0 µM, active compounds read high
About 79,000 compounds went through this panel and 15% of them were active in at least one assay; those are over-represented in the sample as a whole. The source made the active and inactive calls. Rule as the data show it: active = growth inhibition above about 70%; inactive = the rest.
parameter_measured: growth inhibition

>  <compound>
CCc1c(CO)cnc(C)c1OP(=O)(O)O

>  <growth inhibition>
-39.6% (inactive)

$$$$
>  <compound>
CCN(CC)CCOc1ccc2ccccc2c1C(Cc1ccccc1)NCCO (stereo not drawn)

>  <growth inhibition>
3% (inactive)

$$$$
>  <compound>
O=c1[nH]cnc2nn(C3OC(CO)C(O)C3O)cc12 (stereo not drawn)

>  <growth inhibition>
9.25% (inactive)

$$$$
>  <compound>
O=C(O)C(O)c1ccc(Cl)cc1Cl (stereo not drawn)

>  <growth inhibition>
-19.3% (inactive)

$$$$
>  <compound>
Cc1ccc(-c2nnc(NC(=O)Nc3ccc(Cl)cc3)o2)cc1

>  <growth inhibition>
-13.5% (inactive)

$$$$
>  <compound>
O=C1NC(O)c2cccc([N+](=O)[O-])c2O1 (stereo not drawn)

>  <growth inhibition>
-14.8% (inactive)

$$$$
>  <compound>
NC(=O)C1C[C@@H](O)CN1C(=O)c1ccc2c(c1)OCO2 (stereo partly drawn)

>  <growth inhibition>
3.05% (inactive)

$$$$
>  <compound>
COC(OC)C1CC=CCCC1C(=O)O (stereo not drawn)

>  <growth inhibition>
14.2% (inactive)

$$$$
>  <compound>
CCC1CN2CCc3cc(OC)c(OC)cc3C2CC1(O)C#N (stereo not drawn)

>  <growth inhibition>
12.8% (inactive)

$$$$
>  <compound>
O=C1NC(=S)S/C1=C/c1cn(-c2ccccc2)nn1

>  <growth inhibition>
1.75% (inactive)

$$$$

Q: Reported growth inhibition for `Cc1ccc(Nc2ccc(O)cc2)cc1` : what is it?
Ans: -10.8% (inactive)

Q: Quick one: growth inhibition for CC1(C)C2CCC(=O)C1CC2 (stereo not drawn) ?
Ans: -37.4% (inactive)

Q: I would be grateful if you could share the reported growth inhibition for `CC1=C(O)c2ccccc2C(=O)C1=O` .
Ans: 12.8% (inactive)

* * *

growth inhibition overview
# assay_info: NCI Yeast Anticancer Drug Screen. Data for the sgs1 mgt1 strain (AID 161);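 note: 0% = growth of cultures given vehicle only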
# condition_notes: S. cerevisiae sgs1 mgt1 strain, at 50.0 µM, active compounds read high
Compounds without any hit were thinned out: in the full panel of roughly 79,000, 15% have a hit.
Write the number in % without appending the unit.

// worked examples, growth inhibition included
>  <structure_smiles>
CC12CCC(CC1)C2(C)C

>  <growth inhibition (%)>
0.15

$$$$
>  <structure_smiles>
Oc1ccccc1-n1nc2ccc3nonc3c2n1

>  <growth inhibition (%)>
-38.9

$$$$
>  <structure_smiles>
O=C(O)COc1c(F)cc(F)cc1Cl

>  <growth inhibition (%)>
18.4

$$$$

Q: If you can, please state the reported growth inhibition value of `C1CNCCNCCN1` .
Ans: 10.1

Q: # growth inhibition lookup, item `O=c1c(-c2ccccc2)c2oc(c1-c1ccccc1)CS(=O)(=O)CCC2`
Ans: 16

Q: Give its growth inhibition value. Item: `O=C(Nc1ccc(Cl)cc1)c1ccc(Cl)cc1Cl`
Ans: -2.5

Q: Tell me the measured growth inhibition of `CCOC(=O)c1ccc(Nc2nc3ccc(C(F)(F)F)cc3nc2C(=O)OCC)cc1` , please.
Ans: -11.9

Q: Request the reported growth inhibition associated with `CC(C)(C)OC(=O)Cc1c[nH]c2ccccc12`
Ans: -9.45

* * *

# assay_info: NCI Yeast Anticancer Drug Screen. Data for the rad50 strain (AID 155);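 note: 0% = growth of vehicle-only cultures of the same strain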
# condition_notes: S. cerevisiae rad50 strain growth inhibition; at 50.0 µM
About 79,000 compounds went through this panel and 15% of them were active in at least one assay; those are over-represented in the sample as a whole. Active and inactive are the calls of the source. Rule as the data show it: active = growth inhibition above about 70%; inactive = the rest.
Select the matching outcome among Yes for active, No for inactive

Answered cases to consult:
>  <compound>
CC(=O)OC1CCC2(C)C(=CC=C3C4CCC(=O)NC4(C)CCC32)C1 (stereo not drawn)

>  <label_value>
No

$$$$
>  <compound>
COC(OC)c1cccc2c1C1(O)CCC3(CC21)OCCCCO3 (stereo not drawn)

>  <label_value>
No

$$$$
>  <compound>
COc1ccc(NC(=S)NC(=O)c2ccccc2)cc1OC

>  <label_value>
No

$$$$
>  <compound>
Cc1cc(O)cc(O)c1C(=O)O[C@]1(C)C(=O)C=C2C=C(/C=C/C(=O)O)OC=C2C1=O

>  <label_value>
No

$$$$

Q: For CSC(SC)C(OC(C)=O)C(OC(C)=O)C(OC(C)=O)C(COC(C)=O)OC(C)=O (stereo not drawn) , what call appears in the results of this test?
Ans: No

Q: Please let me know the test result on file for `Cc1cccc(C)c1NC(=O)Nc1cccc(C#N)c1` .
Ans: No

Q: Give the logged outcome of this assay for the following compound: `Cc1cc(=O)[nH]c2cc(NN)ccc12`
Ans: No

Q: Could you please tell me the result logged for `C=C1CC[C@@H]2C(C)(C)CCC[C@@]2(C)[C@@H]1Cc1cc(O)ccc1O` in this assay?
Ans: Yes

Q: Tell me the assay call for CC(N(C)Cc1ccccc1)C(C)(O)c1ccccc1 (stereo not drawn) please.
Ans: No

Q: Could you check what this test reported for Cn1c(=O)c2ncn(CC(O)COc3ccccc3)c2n(C)c1=O (stereo not drawn) ?
Ans: No

Q: How was `Cc1cc(N(CCC#N)CCC#N)ccc1/C(N=Nc1ccc(Cl)cc1)=N\NC(=O)c1ccccc1` classified in this test?
Ans: No

Q: Status in this test for `C(/C=N/NC1=NCCCCN1)=N\NC1=NCCCCN1` ?
Ans: No

Q: What is the recorded call for this compound in the test? CC(=O)OCC(=O)C1(O)CCC2C3CCC4CC(=O)CCC4(C)C3C(=O)CC21C (stereo not drawn)
Ans: No

Q: Please indicate how the test categorized `CC(=O)Nc1cc(Cl)cc2[nH]c(C)nc12` .
Ans: No

Q: In this assay, the call recorded for CCOC(=O)C1Cc2c([nH]c(=O)[nH]c2=O)OC1c1ccc(OC)cc1 (stereo not drawn) was what?
Ans: No

Q: // return assay outcome for `COc1ccc(/C=C2\CCN(C(C)=O)C2=O)cc1`
Ans: No

* * *

# assay_info: NCI Yeast Anticancer Drug Screen. Data for the sgs1 mgt1 strain (AID 161);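 note: 0% = growth of cultures given vehicle only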
# condition_notes: S. cerevisiae sgs1 mgt1 strain, at 50.0 µM, active compounds read high
# Procedure: Growth inhibition of yeast strains with defined genetic alterations is measured as a screen for potential anti-cancer activity. Selected strains with alterations in DNA damage repair or cell cycle control were exposed to compounds and growth inhibition was measured relative to vehicle treated controls. The strain used in this assay is sgs1 mgt1
The panel holds about 79,000 compounds, 15% with a hit somewhere; the sample as a whole holds those more often.
Consider the following compounds and their measured growth inhibition readings.
Kindly provide the numeric value in % only, without the unit symbol.

Here's what some known entries look like.
>  <compound>
COC1/C=C/OC2(C)Oc3c(C)c(O)c4c(O)c(c5c(nc(-c6ccco6)n5-c5ccccc5)c4c3C2=O)NC(=O)/C(C)=C\C=C\C(C)C(O)C(C)C(O)C(C)C(OC(C)=O)C1C (centres undefined)

>  <growth inhibition [%]>
-19.8

$$$$
>  <compound>
OCC1OCOC1C1OCOC1CO (centres undefined)

>  <growth inhibition [%]>
3.95

$$$$
>  <compound>
C[N+]1=C2[B-](C(C)(C)C)=[N+](C(C)(C)C)[B-]2(C(C)(C)C)[N+](C)=C2[B-](C(C)(C)C)=[N+](C(C)(C)C)[B-]21C(C)(C)C (centres undefined)

>  <growth inhibition [%]>
9.35

$$$$
>  <compound>
COC12CC3C4CCC5CC(O)CCC5(C)C4CCC3(C)C1C(C)C1(CCC(C)CO1)O2 (centres undefined)

>  <growth inhibition [%]>
13.1

$$$$
>  <compound>
CC1SC2=NC3=C(c4ccccc4C3=O)C(c3ccccc3Cl)N2C1=O (centres undefined)

>  <growth inhibition [%]>
8.55

$$$$
>  <compound>
Nc1nc(=O)n(CCCOc2ccc([N+](=O)[O-])c(Cl)c2)cc1-c1ccc(Cl)c(Cl)c1

>  <growth inhibition [%]>
-5.4

$$$$
>  <compound>
Clc1ccc(N=CNc2ccc(Cl)cc2)cc1

>  <growth inhibition [%]>
-6.55

$$$$
>  <compound>
c1ccc2cc(C3OCCCO3)ccc2c1

>  <growth inhibition [%]>
-2.05

$$$$

Attention now turns to another entry.
Q: Which growth inhibition is reported for this compound? CC(=O)N1CCCCC1C/C(C)=N/O (centres undefined)
Ans: -5.95
